Data provenance: ChEMBL document CHEMBL3352796

Parameter: IC50. Scope: all listed entries.
assay: Inhibition of Pseudomonas aeruginosa AmpC pre-incubated with enzyme for 5 mins before nitrocefin substrate addition by colorimetric assay
READOUT: IC50 (µM)

> print(dat)
                                        smi  measurement.units  assay.result
1  NC(=O)[C@@H]1[C@H]2C[C@H]2[C@@H]2CN1C(=O)N2OS(=O)(=O)[O-].[Na+]                 µM             2
2  C[C@]1(Cn2ccnn2)[C@H](C(=O)O)N2C(=O)C[C@H]2S1(=O)=O                 µM           3.4
3  NC(=O)[C@@H]1[C@@H]2C[C@@H]2[C@@H]2CN1C(=O)N2OS(=O)(=O)[O-].[Na+]                 µM           4.5
